# procedureDetails: HUVEC growth inhibition – cell-based, human, primary screen (AID 575);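 further: 100% = median of untreated cell wells with 0.1% DMSO on each plate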
# conditionLabel: HUVEC proliferation, CellTiter-Glo luminescence, 72 h; at 10 µM; active compounds read low
Entries and their viability
Response body: numeric value in %, unit text excluded.

Guide cases for viability, answers given:
[[record]]
compound = "Cc1[nH]nc2c1C1(C(=O)N(Cc3ccc(Cl)cc3)c3ccccc31)C(C#N)=C(N)O2 (stereo not given)"
measurementlabel = "viability"
resultvalue = 90

[[record]]
compound = "COc1cccc(NS(=O)(=O)c2ccc3[nH]cc(C(=O)NC4CC4)c(=O)c3c2)c1"
measurementlabel = "viability"
resultvalue = 70.3

[[record]]
compound = "CC(C)OC(=O)c1cc(NC(=O)C2C3CCC(O3)C2C(=O)O)cc(C(=O)OC(C)C)c1 (stereo not given)"
measurementlabel = "viability"
resultvalue = 88.1

[[record]]
compound = "O=C(CSc1oc(-c2ccco2)nc1S(=O)(=O)c1ccccc1)NCC1CCCO1 (stereo not given)"
measurementlabel = "viability"
resultvalue = 99.7


# input for lookup
Prompt: Tell me its viability given Cc1nnc(NC(=O)C2CCCO2)s1 (stereo not given) as the entry.
Completion: 105

Data origin, for the record: PubChem BioAssay
